- Test system: TK-10
- Assay info: NCI tumour cell line growth inhibition, 48 h
The source made the active and inactive calls. No stated cut-off is given here; in the data, active = GI50 up to about 1.1 µM and inactive = higher.
Kindly supply the reported GI50 values for the records listed here.

The molecule listed as Brc1ccc(CCNCCN2CCCCC2)cc1 shows GI50 equal to 15.5 µM (inactive)

GET /value?item= CC(C)C(C)/C=C\C(C)C1CCC2C3=CC=C4CC(O)CCC4(C)C3CCC21C (stereo unspecified) &field=GI50 returns > 55 µM (inactive)

For reference, reported GI50 for CNc1nnnn1C1OC(CO)C(O)C1O (stereo unspecified) stands at > 100 µM (inactive)

For record CCc1cccc(C)c1NC(=O)CC1C(=O)Nc2ccccc2[S+]1[O-] (stereo unspecified) the listed GI50 is > 100 µM (inactive)

Briefly, GI50 measured for COc1cc(Nc2nc3ccccc3nc2C(C)C)cc(OC)c1OC : > 100 µM (inactive)

// field: GI50; key: CSc1ncnc2c1ncn2CCC(=O)OC(C)(C)C ; value = > 100 µM (inactive)

The measured GI50 associated with C[n+]1c2ccccc2c2/c(=C\C#N)c3ccccc3n21 reads 1.69 µM (inactive)

Documented GI50 of COC(=O)CCN1CCN(CCO)CC1C (stereo unspecified) : > 10 µM (inactive)

Value of measured GI50 for the entry COC(=O)/N=[N+](\[O-])C(c1ccc(OC)cc1)C1CCCCC1 (stereo unspecified) : 3.58 µM (inactive)

The reported GI50 of the molecule O=C(CC1(O)C(=O)Nc2c(Cl)cc(Cl)cc21)c1ccc([N+](=O)[O-])cc1 (stereo unspecified) was > 100 µM (inactive)

C[n+]1c2ccccc2c(/C=N\NS(=O)(=O)c2ccc(O)c(C(=O)O)c2)c2ccccc21 has a reported GI50 of > 100 µM (inactive)

Reference source: ChEMBL document CHEMBL1201862
